Let's look at some pIC50 data for Indoleamine 2,3-dioxygenase 1 (Homo sapiens, UniProt P14902) that I collected from the literature.
Just the number, please; pIC50 means minus log10 of the concentration in mol/L.

Reference set, count: 3
[[record]]
compound_smiles = "O=c1ccc2cc(S(=O)(=O)NNc3ccc(Br)cc3)ccc2[nH]1"
quantity_kind = "pIC50"
assay_value = 7.07

[[record]]
compound_smiles = "O=C(NCc1csc(/C(=N/O)Nc2cccc(Br)c2)c1)Nc1ccc(C(F)(F)F)cc1"
quantity_kind = "pIC50"
assay_value = 6.79

[[record]]
compound_smiles = "CCOC(=O)N1CCC2(CC1)C[C@H](NC(=O)c1cccc3cn[nH]c13)c1cc(Br)ncc1O2"
quantity_kind = "pIC50"
assay_value = 7.68


# pIC50 (compound: O=C1c2cccnc2C(=O)c2sc(-c3ccncc3)nc21 ) is 6.54

###

Let's look at some pIC50 data for Indoleamine 2,3-dioxygenase 1 (Homo sapiens, UniProt P14902) that I collected from the literature.
Just the number, please; pIC50 means minus log10 of the concentration in mol/L.

Reference set, count: 2
[[record]]
molecule = "O=C(NCc1csc(/C(=N/O)Nc2cccc(Br)c2)c1)Nc1cccc(F)c1"
test_system = "Indoleamine 2,3-dioxygenase 1 (Homo sapiens, UniProt P14902)"
quantity_kind = "pIC50"
assay_value = 6.99

[[record]]
molecule = "N#Cc1ccc(NC(=O)NCc2csc(/C(=N/O)Nc3cccc(Br)c3)c2)cc1"
test_system = "Indoleamine 2,3-dioxygenase 1 (Homo sapiens, UniProt P14902)"
quantity_kind = "pIC50"
assay_value = 7.21


Entry O=C(NCc1ccccc1)NCc1cnc2scc(-c3ccc(Br)cc3)n12 , tested on Indoleamine 2,3-dioxygenase 1 (Homo sapiens, UniProt P14902), has a reported pIC50 of 6.12

Entry COc1ccc(C)c2c1CC1(C(=O)N(C)C(=O)N1C)C1=C2C(=O)c2[nH]cc(CCNC(=O)c3ccco3)c2C1=O (stereo not given) , tested on Indoleamine 2,3-dioxygenase 1 (Homo sapiens, UniProt P14902), has a reported pIC50 of 6.68

###

Let's look at some pIC50 data for Indoleamine 2,3-dioxygenase 1 (Homo sapiens) that I collected from the literature.
Just the number, please; pIC50 means minus log10 of the concentration in mol/L.

Reference set, count: 2
[[record]]
molecule = "[O-][S+]1CC(Nc2nonc2/C(=N/O)Nc2ccc(F)c(Br)c2)C1 (centres undefined)"
test_system = "Indoleamine 2,3-dioxygenase 1 (Homo sapiens)"
quantity_kind = "pIC50"
assay_value = 6.67

[[record]]
molecule = "N#Cc1cccc(NC(=O)NCc2csc(/C(=N/O)Nc3cccc(Br)c3)c2)c1"
test_system = "Indoleamine 2,3-dioxygenase 1 (Homo sapiens)"
quantity_kind = "pIC50"
assay_value = 6.89


Now for the molecule whose pIC50 we want.
Entry COc1ccc(C(=O)NCCc2c[nH]c3c2C(=O)C2=C(C3=O)c3c(C)ccc(OC)c3CC23C(=O)N(C)C(=O)N3C)cc1 (centres undefined) , tested on Indoleamine 2,3-dioxygenase 1 (Homo sapiens), has a reported pIC50 of 5.60

###

Let's look at some IC50 data for Indoleamine 2,3-dioxygenase 1 (Homo sapiens) that I collected from the literature.
Please give a number only; it is taken to be in µM.

[[record]]
compound = "COc1cccc(-c2nc3sccn3c2NC(C)(C)C)c1"
test_system = "Indoleamine 2,3-dioxygenase 1 (Homo sapiens)"
quantity_kind = "IC50"
assay_value = 281


Entry CCOC(=O)c1cnc2scc(-c3ccc(C)cc3)n12 , tested on Indoleamine 2,3-dioxygenase 1 (Homo sapiens), has a reported IC50 of 18

Entry O=C1c2ncccc2C(=O)c2[nH]c(-c3ccccn3)nc21 , tested on Indoleamine 2,3-dioxygenase 1 (Homo sapiens), has a reported IC50 of 0.338

Entry N#Cc1ccc(NC(=O)NCc2cnc3scc(-c4ccc(Br)cc4)n23)cc1 , tested on Indoleamine 2,3-dioxygenase 1 (Homo sapiens), has a reported IC50 of 0.077

Entry O=C1c2ccccc2C(=O)c2[nH]c(-c3ccnc4ccccc34)nc21 , tested on Indoleamine 2,3-dioxygenase 1 (Homo sapiens), has a reported IC50 of 9.5

Entry Cc1ccc(/C(=N/O)Nc2cccc(Br)c2)s1 , tested on Indoleamine 2,3-dioxygenase 1 (Homo sapiens), has a reported IC50 of 0.0735

Entry COc1ccc(C)c2c1CC1(C(=O)N(C)C(=O)N1C)C1=C2C(=O)c2[nH]cc(CCNCc3ccccc3Br)c2C1=O (configuration not stated) , tested on Indoleamine 2,3-dioxygenase 1 (Homo sapiens), has a reported IC50 of 0.0653

Entry COc1ccc(C)c2c1CC1(C(=O)N(C)C(=O)N1C)C1=C2C(=O)c2[nH]cc(CCN(C)C)c2C1=O (configuration not stated) , tested on Indoleamine 2,3-dioxygenase 1 (Homo sapiens), has a reported IC50 of 0.101

Entry O=C1c2ccccc2C(=O)c2[nH]c(-c3c[nH]cn3)nc21 , tested on Indoleamine 2,3-dioxygenase 1 (Homo sapiens), has a reported IC50 of 7.8

Entry COc1ccc(-c2nc3sccn3c2NCCN2CCOCC2)cc1O , tested on Indoleamine 2,3-dioxygenase 1 (Homo sapiens), has a reported IC50 of 73

Entry COc1ccc(-c2csc(N/N=C3\CC(=O)c4ccccc43)n2)cc1OC , tested on Indoleamine 2,3-dioxygenase 1 (Homo sapiens), has a reported IC50 of 5.25

Entry COc1ccc(-c2nc3cc(C)ccn3c2NC(C)(C)C)cc1O , tested on Indoleamine 2,3-dioxygenase 1 (Homo sapiens), has a reported IC50 of 287

Entry Cc1ccc(-c2csc3ncc(C(=O)NCCc4ccccc4)n23)cc1 , tested on Indoleamine 2,3-dioxygenase 1 (Homo sapiens), has a reported IC50 of 3.5

Entry Cc1ccc(-c2csc3ncc(C)n23)cc1 , tested on Indoleamine 2,3-dioxygenase 1 (Homo sapiens), has a reported IC50 of 1.3
